Biological target: UniProtKB P51684
Test: human CCR6 calcium flux activity (FLIPR, HEK293 cells stably expressing human CCR6, CCL20 stimulation)
Details: HEK293 cells stably expressing human CCR6, EC80 human MIP-3 alpha/CCL20; read-out: CCR6 inhibitory activity, IC50
Method: The activity of the compounds was evaluated using HEK293 cells stably expressing human CCR6 via the FLIPR platform. […] After the incubation was completed, 10 µL/well of the 6×EC80 human MIP-3 alpha/CCL20 working solution was transferred to the cell plate using a FLIPR instrument, and the fluorescence signal changes at an excitation wavelength of 494 nm and an emission wavelength of 516 nm were recorded over 90 seconds. […]
pIC50: −log10 of the molar value.
We use 8 as the dividing line for pIC50: on or above the line is true, below is false.

**Q:** // inclusive: pIC50 at least 8? input: CN(C)C(=O)c1nccc(Nc2c(N[C@@H](c3nc(F)ccc3Cl)C3(C)CCCC3)c(=O)c2=O)c1O
**A:** true

**Q:** CC#CC(Nc1c(Nc2ccnc(C(=O)N(C)C)c2O)c(=O)c1=O)C1(C)CCC(F)(F)C1 (stereo not shown) ?
**A:** false

**Q:** CC#C[C@H](Nc1c(Nc2ccnc(C(=O)N(C)C)c2O)c(=O)c1=O)C1(C)CCCC1 ?
**A:** false

###

Can you tell me Liver microsome T1-2 (min) Mouse for the items I'm about to list?
Test: in vitro liver microsome metabolic stability, mouse
Format: in vitro ADME
Details: Mouse liver microsomes, 37°C
Description: Preparation of working solutions for test compounds and standards: An appropriate amount of the compound was accurately weighed and dissolved in a corresponding volume of suitable solvent to prepare 1 mM stock solutions of the test compounds and standards. The stock solutions were then diluted with appropriate solvent to obtain 100 µM working solutions of the test compounds, ensuring that the DMSO content in the working solutions remained below 10%. […]
Please state the figure in min; there is no need to write the unit.

**Q:** I'd like to know its Liver microsome T1-2 (min) Mouse. The compound in question is CN(C)C(=O)c1nccc(Nc2c(N[C@@H](C#CC3CC3)C3(C)CCCC3)c(=O)c2=O)c1O
**A:** 1889.54

**Q:** CN(C)C(=O)c1nccc(Nc2c(N[C@@H](C#CC3CCC3)[C@]3(C)CC(F)(F)CO3)c(=O)c2=O)c1O (single isomer, unassigned) [110A] ?
**A:** 1597.63

**Q:** CN(C)C(=O)c1nccc(Nc2c(NC(C#CC3CCC3)C3(C)CC(F)(F)CO3)c(=O)c2=O)c1O (stereo not shown) ?
**A:** 1846.01

###

Biological target: human CCR6 (Homo sapiens, UniProt P51684)
Sequence (P51684 1-374): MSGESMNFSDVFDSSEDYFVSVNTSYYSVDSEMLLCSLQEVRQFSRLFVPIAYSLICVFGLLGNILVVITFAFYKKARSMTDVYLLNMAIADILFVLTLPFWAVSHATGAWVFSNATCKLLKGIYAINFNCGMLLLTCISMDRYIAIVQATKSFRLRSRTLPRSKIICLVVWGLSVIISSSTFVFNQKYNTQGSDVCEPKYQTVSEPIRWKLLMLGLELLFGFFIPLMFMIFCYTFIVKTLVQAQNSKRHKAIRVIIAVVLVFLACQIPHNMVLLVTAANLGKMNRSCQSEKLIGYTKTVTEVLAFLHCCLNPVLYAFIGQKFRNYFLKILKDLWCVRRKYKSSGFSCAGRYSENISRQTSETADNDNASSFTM
Assay: human CCR6 calcium flux activity (FLIPR, HEK293 cells stably expressing human CCR6, CCL20 stimulation)
Conditions: HEK293 cells stably expressing human CCR6, EC80 human MIP-3 alpha/CCL20; read-out: CCR6 inhibitory activity, IC50
Can you tell me IC50 for the items I'm about to list?
Please state the figure in µM; there is no need to write the unit.

**Q:** I'd like to know its IC50. The compound in question is CC#C[C@H](Nc1c(Nc2ccc(Cl)c(C(=O)N(C)C)c2O)c(=O)c1=O)C1(C)CCCC1
**A:** 0.0553

**Q:** CN(C)C(=O)c1nccc(Nc2c(N[C@@H](c3cccc(CF)n3)C3(C)CCCC3)c(=O)c2=O)c1O ?
**A:** 0.0039

**Q:** CN(C)C(=O)c1nccc(Nc2c(N[C@@H](c3cccc(C(F)(F)F)n3)C3(C)CCCC3)c(=O)c2=O)c1O ?
**A:** 0.151

**Q:** CN(C)C(=O)c1nccc(Nc2c(N[C@@H](c3nc(CF)ccc3F)C3(C)CCCC3)c(=O)c2=O)c1O ?
**A:** 0.0011

**Q:** Cc1cnc([C@H](Nc2c(Nc3ccnc(C(=O)N(C)C)c3O)c(=O)c2=O)C2(C)CCCC2)c(C)c1 ?
**A:** 0.152

**Q:** Cc1cccnc1[C@H](Nc1c(Nc2ccnc(C(=O)N(C)C)c2O)c(=O)c1=O)C1(C)CC(F)(F)C1 ?
**A:** 0.0173

**Q:** CN(C)C(=O)c1nccc(Nc2c(N[C@@H](C#CC3CC3)C3(C)CCCC3)c(=O)c2=O)c1O ?
**A:** 0.0476

**Q:** CN(C)C(=O)c1nccc(Nc2c(N[C@@H](c3ncc(F)cc3F)C3(C)CCCC3)c(=O)c2=O)c1O ?
**A:** 0.008
